# SUBJECT_OF_TEST: FGFR2 V564F (Homo sapiens, UniProt P21802, V564F)
# Construct: biochemical assays using purified intracellular domains of the respective isoforms
# Sequence (P21802 399-821 V564F limits assumed): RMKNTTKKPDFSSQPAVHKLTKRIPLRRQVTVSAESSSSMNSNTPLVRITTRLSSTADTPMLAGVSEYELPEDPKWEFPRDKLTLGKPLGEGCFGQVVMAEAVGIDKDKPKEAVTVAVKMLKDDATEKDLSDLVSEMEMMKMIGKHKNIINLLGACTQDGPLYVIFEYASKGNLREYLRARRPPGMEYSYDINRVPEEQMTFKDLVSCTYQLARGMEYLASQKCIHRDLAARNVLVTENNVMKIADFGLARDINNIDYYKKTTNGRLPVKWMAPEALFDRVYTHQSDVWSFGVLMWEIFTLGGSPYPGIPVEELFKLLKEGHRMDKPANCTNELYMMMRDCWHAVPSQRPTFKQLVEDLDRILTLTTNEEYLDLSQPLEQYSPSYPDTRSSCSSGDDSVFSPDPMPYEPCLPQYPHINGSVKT
# ASSAY_REMARKS: FGFR mutant enzyme assay (HTRF KinEASE-TK)
# CONDITION_SUMMARY: ATP 1.5 uM
# Method: Activity against FGFR wild type and mutant enzymes were determined in biochemical assays using purified intracellular domains of the respective isoforms using HTRF KinEASE-TK assay technology from CisBio, now PerkinElmer. (Catalogue number 62TK0PEC). Briefly test compounds were tested in 11 point 1:3 serial dilutions, typical final concentration range from 10,000 nM to 0.17 nM. […] The plates were read using a multimode reader and the emission ratio of 665 nm to 615 nm was determined. […]
pIC50: −log10 of the molar value.
Class label 1: pIC50 at least 9. Class label 0: pIC50 below 9.

COMPOUND: Cc1nn(C[C@H](O)CO)cc1-c1cc(O[C@H](C)c2ccc(F)cn2)c2c(C#N)cnn2c1
ASSIGNED_CLASS: label 0
--
COMPOUND: C[C@@H](Oc1cc(-c2cnn(C3CCNCC3)c2)cn2ncc(C#N)c12)c1ccccn1
ASSIGNED_CLASS: label 1
--
COMPOUND: Cc1c(-c2cc(O[C@@H](C)c3ccc(F)cn3)c3c(C#N)cnn3c2)cnn1[C@H]1CC[C@@H](O)CC1
ASSIGNED_CLASS: label 0
--
COMPOUND: C[C@H](O)C(=O)N1CCC(n2cc(-c3cc(O[C@H](C)c4ccc(F)cn4)c4c(C#N)cnn4c3)cn2)CC1
ASSIGNED_CLASS: label 1
--
COMPOUND: Cc1c(-c2cc(O[C@H](CO)c3ccc(F)cn3)c3c(C#N)cnn3c2)cnn1[C@H]1CC[C@H](O)CC1
ASSIGNED_CLASS: label 0
--
COMPOUND: C[C@@H](Oc1cc(-c2cnn(CCO)c2N)cn2ncc(C#N)c12)c1ccc(F)cn1
ASSIGNED_CLASS: label 0
--
COMPOUND: CN=S1(=O)CCC(n2cc(-c3cc(O[C@H](C)c4ccc(F)cn4)c4c(C#N)cnn4c3)cn2)CC1 (stereo partly drawn)
ASSIGNED_CLASS: label 1

====

# SUBJECT_OF_TEST: FGFR2 V564F (Homo sapiens, UniProt P21802, V564F)
# Construct: biochemical assays using purified intracellular domains of the respective isoforms
# ASSAY_REMARKS: FGFR mutant enzyme assay (HTRF KinEASE-TK)
# CONDITION_SUMMARY: ATP 1.5 uM
pIC50: −log10 of the molar value.

STRUCTURE_SMILES: Cc1c(-c2cc(O[C@H](C)c3ccc(F)cn3)c3c(C#N)cnn3c2)cnn1C1CCN(C(=O)C2(N)CCC2)CC1
pIC50: 8.52

STRUCTURE_SMILES: Cc1c(-c2cc(O[C@H](C)c3ccc(F)cn3)c3c(C#N)cnn3c2)nnn1[C@H]1CC[C@H](O)CC1
pIC50: 8.52

STRUCTURE_SMILES: Cc1c(-c2cc(O[C@H](C)c3ccc(F)cn3)c3c(C#N)cnn3c2)cnn1[C@H]1CCCNC1
pIC50: 8.89

STRUCTURE_SMILES: Cc1c(-c2cc(O[C@H](C)c3ccccn3)c3c(C#N)cnn3c2)cnn1C1CCN(C)CC1
pIC50: 9.00

====

# SUBJECT_OF_TEST: UniProtKB P21802
# ASSAY_REMARKS: Phosphorylated FGFR2-WT (pFGFR2-WT) cell assay, KATOIII cells
# Format: cell-based
# CONDITION_SUMMARY: 1 hour incubation, phospho FGFR2 HTRF
# Protocol: KATOIII cells were grown in the appropriate growth medium, IMDM supplemented with 20% fetal bovine serum. Cells were seeded into a 384-well at 1×10^5 cells/25 μL/well. […] Following the 1-hour incubation with compounds, cell lysates were prepared and phospho FGFR2 was measured using the HTRF Phospho-FGFR2 (TYR653/654) Detection Kits (CisBio, cat #64FGFR2Y6PEG). […] Plates were read on the En Vision multimode plate reader via HTRF dual wavelength detection. […]
pIC50: −log10 of the molar value.
// values below are reported pIC50
MEASURED_QUANTITY: pIC50

COMPOUND: Cc1c(-c2cc(O[C@H](C)c3ccc(F)cn3)c3c(C#N)cnn3c2)cnn1[C@H]1CCCN(C(=O)C(C)(C)O)C1 [Compound 17]
MEAS_VALUE: 8.47
--
COMPOUND: Cc1c(-c2cc(O[C@H](C)c3ccc(F)cn3)c3c(C#N)cnn3c2)cnn1[C@H]1CCCN(C(=O)[C@@H](C)O)C1 [Compound 48]
MEAS_VALUE: 8.52
--
COMPOUND: Cc1c(-c2cc(O[C@H](C)c3ccc(Cl)cn3)c3c(C#N)cnn3c2)cnn1[C@H]1CCCNC1 [Compound 14]
MEAS_VALUE: 6.57
--
COMPOUND: CN=S1(=O)CCC(n2cc(-c3cc(O[C@H](C)c4ccc(F)cn4)c4c(C#N)cnn4c3)cn2)CC1 (stereo partly shown) [Compound 58]
MEAS_VALUE: 8.80
--
COMPOUND: Cc1c(-c2cc(O[C@H](C)c3ncccc3F)c3c(C#N)cnn3c2)cnn1C1CCNCC1 [Compound 9]
MEAS_VALUE: 8.15
--
COMPOUND: C[C@@H]1CN(c2ccc(-c3cc(O[C@H](C)c4ccc(F)cn4)c4c(C#N)cnn4c3)cn2)C[C@H](C)O1 [Compound 16]
MEAS_VALUE: 8.10
--
COMPOUND: Cc1c(-c2cc(O[C@H](C)c3ccc(F)cn3)c3c(C#N)cnn3c2)cnn1[C@H]1CCCN(C[C@H](O)CO)C1 [Compound 37]
MEAS_VALUE: 8.25

====

// values below are reported log10 of IC50
# SUBJECT_OF_TEST: FGFR2 V564I (Homo sapiens, UniProt P21802, V564I)
# Construct: biochemical assays using purified intracellular domains of the respective isoforms
# Sequence (P21802 399-821 V564I limits assumed): as the sequence (P21802 399-821 V564F limits assumed) above, with F166I counted along it
# ASSAY_REMARKS: FGFR mutant enzyme assay (HTRF KinEASE-TK)
# CONDITION_SUMMARY: ATP 0.4 uM
MEASURED_QUANTITY: log10 of IC50 (log10 of the value in nM)

MOLECULE: Cc1c(-c2cc(O[C@H](C)c3ccc(F)cn3)c3c(C#N)cnn3c2)cnn1[C@H]1CC[C@H](OC(=O)[C@@H](N)C(C)C)CC1 [Compound 53]
log10 of IC50: 0.18
--
MOLECULE: C[C@@H](Oc1cc(-c2ccc(N3CC[C@@H](O)[C@@H](O)C3)nc2)cn2ncc(C#N)c12)c1ccc(F)cn1 [Compound 25]
log10 of IC50: 0.00
--
MOLECULE: Cc1c(-c2cc(OC(C)c3ccc(F)cn3)c3c(C#N)cnn3c2)cnn1[C@H]1CC[C@@H](O)CC1 (some centres unmarked) [Compound 52]
log10 of IC50: 0.48
--
MOLECULE: Cc1c(-c2cc(O[C@H](C)c3ccc(F)cn3)c3c(C#N)cnn3c2)cnn1[C@H]1CC[C@H](O)CC1 [Compound 1]
log10 of IC50: 0.15
--
MOLECULE: Cc1c(-c2cc(O[C@H](C)c3ccc(F)cn3)c3c(C#N)cnn3c2)cnn1C[C@H](O)CO [Compound 27]
log10 of IC50: 1.23
--
MOLECULE: Cc1c(-c2cc(O[C@H](C)c3ccc(F)cn3)c3c(C#N)cnn3c2)cnn1[C@H]1CCCN(C(=O)[C@@H](C)O)C1 [Compound 48]
log10 of IC50: 0.00
--
MOLECULE: CN=S1(=O)CCC(n2cc(-c3cc(O[C@H](C)c4ccc(F)cn4)c4c(C#N)cnn4c3)cn2)CC1 (some centres unmarked) [Compound 58]
log10 of IC50: 0.00
--
MOLECULE: Cc1c(-c2cc(O[C@H](C)c3ccc(F)cn3)c3c(C#N)cnn3c2)cnn1[C@H]1CCCN(C[C@H](O)CO)C1 [Compound 37]
log10 of IC50: 0.20
--
MOLECULE: Cc1c(-c2cc(O[C@H](C)c3ccc(F)cn3)c3c(C#N)cnn3c2)cnn1[C@H]1CCCN(C(=O)[C@H](C)O)C1 [Compound 18]
log10 of IC50: 0.30
--
MOLECULE: Cc1c(-c2cc(O[C@H](C)c3ccccn3)c3c(C#N)cnn3c2)cnn1C1CCNCC1 [Compound 5]
log10 of IC50: 0.15
--
MOLECULE: C[C@H](O)C(=O)N1CCC(n2cc(-c3cc(O[C@H](C)c4ccc(F)cn4)c4c(C#N)cnn4c3)cn2)CC1 [Compound 19]
log10 of IC50: -0.40
--
MOLECULE: Cc1nn(C[C@H](O)CO)cc1-c1cc(O[C@H](C)c2ccc(F)cn2)c2c(C#N)cnn2c1 [Compound 28]
log10 of IC50: 1.08
--
MOLECULE: Cc1c(-c2cc(O[C@H](C)c3ccc(F)cn3)c3c(C#N)cnn3c2)cnn1[C@H]1CCC[C@@H](O)C1 [Compound 71]
log10 of IC50: 0.48
--
MOLECULE: Cc1c(-c2cc(O[C@@H](CO)c3ccc(F)cn3)c3c(C#N)cnn3c2)cnn1[C@H]1CC[C@H](O)CC1 [Compound 66]
log10 of IC50: 2.57
--
MOLECULE: C[C@@H](Oc1cc(-c2cnn([C@H]3CC[C@H](O)CC3)c2N)cn2ncc(C#N)c12)c1ccc(F)cn1 [Compound 32]
log10 of IC50: 0.00
--
MOLECULE: Cc1c(-c2cc(O[C@H](C)c3ncccc3F)c3c(C#N)cnn3c2)cnn1C1CCNCC1 [Compound 9]
log10 of IC50: 0.00
--
MOLECULE: Cc1c(-c2cc(O[C@H](C)c3ccc(F)cn3)c3c(C#N)cnn3c2)cnn1[C@H]1CCCNC1 [Compound 12]
log10 of IC50: 0.26
--
MOLECULE: Cc1c(-c2cc(O[C@H](C)c3ncccc3F)c3c(C#N)cnn3c2)cnn1[C@H]1CCCNC1 [Compound 10]
log10 of IC50: 0.00
--
MOLECULE: Cc1c(-c2cc(O[C@H](C)c3ccc(F)cn3)c3c(C#N)cnn3c2)cnn1[C@H]1CCCN(C(=O)C(C)(C)O)C1 [Compound 17]
log10 of IC50: 0.23
--
MOLECULE: CC[C@@H](Oc1cc(-c2cnn([C@H]3CC[C@H](O)CC3)c2C)cn2ncc(C#N)c12)c1ccc(F)cn1 [Compound 60]
log10 of IC50: 0.30
